Items are presented alongside their recorded inhibition at 1 h, 10 μM.
- MEASURED ON: BSEP (Rattus norvegicus, UniProt O70127)
- Sequence (O70127 whole entry): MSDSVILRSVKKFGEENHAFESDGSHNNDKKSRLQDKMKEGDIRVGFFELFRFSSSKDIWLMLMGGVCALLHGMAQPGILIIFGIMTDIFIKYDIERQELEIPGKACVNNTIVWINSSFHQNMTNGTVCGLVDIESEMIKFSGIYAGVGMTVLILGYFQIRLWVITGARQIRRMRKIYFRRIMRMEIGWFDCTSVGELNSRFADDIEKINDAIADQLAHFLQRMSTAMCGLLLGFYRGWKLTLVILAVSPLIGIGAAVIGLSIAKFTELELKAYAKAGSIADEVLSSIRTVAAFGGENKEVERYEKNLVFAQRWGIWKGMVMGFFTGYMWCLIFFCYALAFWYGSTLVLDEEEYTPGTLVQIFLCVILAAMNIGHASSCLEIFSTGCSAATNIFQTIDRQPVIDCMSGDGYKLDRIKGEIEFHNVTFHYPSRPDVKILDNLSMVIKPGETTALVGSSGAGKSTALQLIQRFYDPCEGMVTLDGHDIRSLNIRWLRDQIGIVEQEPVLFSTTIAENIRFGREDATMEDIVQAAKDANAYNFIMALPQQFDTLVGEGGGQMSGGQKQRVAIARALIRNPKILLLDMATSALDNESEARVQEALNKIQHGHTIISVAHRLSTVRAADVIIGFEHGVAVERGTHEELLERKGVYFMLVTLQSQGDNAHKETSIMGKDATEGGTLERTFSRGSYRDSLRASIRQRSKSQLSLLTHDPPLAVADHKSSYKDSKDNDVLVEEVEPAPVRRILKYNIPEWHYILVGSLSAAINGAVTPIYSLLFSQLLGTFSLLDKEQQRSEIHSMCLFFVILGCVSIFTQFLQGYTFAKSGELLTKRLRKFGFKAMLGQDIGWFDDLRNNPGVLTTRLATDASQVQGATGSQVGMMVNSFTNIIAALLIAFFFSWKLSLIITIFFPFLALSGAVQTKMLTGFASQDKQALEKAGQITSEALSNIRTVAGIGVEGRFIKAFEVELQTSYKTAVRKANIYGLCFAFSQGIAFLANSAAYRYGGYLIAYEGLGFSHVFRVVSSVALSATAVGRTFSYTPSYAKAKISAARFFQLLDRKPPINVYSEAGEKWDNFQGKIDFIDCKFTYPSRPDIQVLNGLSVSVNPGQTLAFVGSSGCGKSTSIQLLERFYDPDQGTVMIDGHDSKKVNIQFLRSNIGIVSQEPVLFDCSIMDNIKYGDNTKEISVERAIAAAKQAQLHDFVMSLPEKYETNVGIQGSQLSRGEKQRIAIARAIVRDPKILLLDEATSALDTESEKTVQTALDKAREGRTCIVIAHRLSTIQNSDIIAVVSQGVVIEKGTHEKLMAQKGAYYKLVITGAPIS
- PROCEDURE SUMMARY: Inhibition of BSEP activity (transport of glycocholate) in rat hepatocytes
- RUN PARAMETERS: hepatocytes in suspension, probe glycocholate

Tell me the measured inhibition at 1 h, 10 μM of CC(=O)N1CCN(c2ccc(OCC3COC(Cn4ccnc4)(c4ccc(Cl)cc4Cl)O3)cc2)CC1 (stereo not drawn) , please.
> 50%

----------
- MEASURED ON: UniProt:B8K1W2
- Sequence (B8K1W2 whole entry): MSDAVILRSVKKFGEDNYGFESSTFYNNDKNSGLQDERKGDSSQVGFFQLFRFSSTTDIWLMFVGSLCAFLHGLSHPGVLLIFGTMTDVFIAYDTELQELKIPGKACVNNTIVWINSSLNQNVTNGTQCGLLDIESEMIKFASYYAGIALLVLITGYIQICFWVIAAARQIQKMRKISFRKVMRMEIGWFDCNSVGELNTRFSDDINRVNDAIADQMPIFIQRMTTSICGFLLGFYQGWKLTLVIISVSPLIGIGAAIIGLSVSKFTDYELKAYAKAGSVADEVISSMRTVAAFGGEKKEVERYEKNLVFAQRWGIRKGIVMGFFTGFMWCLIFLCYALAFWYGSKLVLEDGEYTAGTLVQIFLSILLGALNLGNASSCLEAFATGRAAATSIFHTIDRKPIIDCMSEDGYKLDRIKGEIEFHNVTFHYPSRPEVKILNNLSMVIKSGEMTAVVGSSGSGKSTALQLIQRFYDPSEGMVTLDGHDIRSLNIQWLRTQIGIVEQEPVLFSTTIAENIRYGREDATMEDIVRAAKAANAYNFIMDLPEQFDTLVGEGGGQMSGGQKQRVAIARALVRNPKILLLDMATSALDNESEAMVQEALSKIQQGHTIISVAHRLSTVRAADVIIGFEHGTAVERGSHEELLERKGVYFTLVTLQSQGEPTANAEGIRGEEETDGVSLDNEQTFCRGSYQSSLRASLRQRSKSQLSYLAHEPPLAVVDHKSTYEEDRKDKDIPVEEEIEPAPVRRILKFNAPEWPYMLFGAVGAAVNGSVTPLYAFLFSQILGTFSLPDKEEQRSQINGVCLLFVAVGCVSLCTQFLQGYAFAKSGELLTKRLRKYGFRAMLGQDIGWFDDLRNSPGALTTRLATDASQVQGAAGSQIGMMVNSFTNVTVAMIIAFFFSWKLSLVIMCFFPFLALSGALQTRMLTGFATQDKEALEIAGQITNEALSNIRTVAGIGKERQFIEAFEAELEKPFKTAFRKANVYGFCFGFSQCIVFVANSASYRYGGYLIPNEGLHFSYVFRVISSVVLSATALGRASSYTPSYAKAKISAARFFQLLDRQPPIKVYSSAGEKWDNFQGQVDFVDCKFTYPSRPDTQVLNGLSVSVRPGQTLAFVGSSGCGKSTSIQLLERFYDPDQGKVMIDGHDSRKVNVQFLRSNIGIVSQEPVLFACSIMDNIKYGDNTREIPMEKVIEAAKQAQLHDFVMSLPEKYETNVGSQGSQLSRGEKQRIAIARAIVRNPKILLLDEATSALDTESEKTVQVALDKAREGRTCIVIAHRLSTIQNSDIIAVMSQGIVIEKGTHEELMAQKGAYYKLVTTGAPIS
- PROCEDURE SUMMARY: IC50 for inhibition of BSEP activity in dog hepatocytes
- Assay type: cell-based
OBSERVABLE: IC50

Consider the worked cases shown below.
COMPOUND	MEASURED ON	OBSERVABLE	REPORTED MEASUREMENT
Cc1c(C)c2c(c(C)c1O)CCC(C)(COc1ccc(CC3SC(=O)NC3=O)cc1)O2 (stereo not drawn)	UniProt:B8K1W2	IC50	1 to 10 µM
CO[C@H]1/C=C/O[C@@]2(C)Oc3c(C)c(O)c4c(O)c(c(/C=N/N5CCN(C)CC5)c(O)c4c3C2=O)NC(=O)/C(C)=C\C=C\[C@H](C)[C@H](O)[C@@H](C)[C@@H](O)[C@@H](C)[C@H](OC(C)=O)[C@@H]1C	UniProt:B8K1W2	IC50	> 10 µM

Now look at this one.
Tell me the measured IC50 of CC(=O)N1CCN(c2ccc(OCC3COC(Cn4ccnc4)(c4ccc(Cl)cc4Cl)O3)cc2)CC1 (stereo not drawn) , please.
1 to 10 µM
